The reported measurements were obtained from ChEMBL document CHEMBL1201862.

System: A549
assayDetails: NCI tumour cell line growth inhibition, 48 h
The source made the active and inactive calls. No stated cut-off is given here; in the data, active = GI50 up to about 1.1 µM and inactive = higher.
quantityKind: GI50

Query "COc1ccc(-c2c3c(nc4nc(SCCc5ccccc5)nc(N)c24)CCCC3)cc1OC" yields GI50 of > 100 µM (inactive)

New cases:
Query "CC(=O)CC(=O)c1cc2c(=O)oc(C)cc2oc1=O" yields GI50 of > 37.5 µM (inactive)

Query O=C1CC=C2C3CC4N(CCC45c4ccccc4N1C25)C/C3=C\CO (stereo not drawn) yields GI50 of > 100 µM (inactive)

----------
Tested on: MDA-MB-435
assayDetails: NCI tumour cell line growth inhibition, 48 h
Active and inactive are the calls of the source. No stated cut-off is given here; in the data, active = GI50 up to about 1.1 µM and inactive = higher.
quantityKind: GI50

Query "COc1ccc2nc3cccc([N+](=O)[O-])c3c(NCCC(=O)O)c2c1" yields GI50 of > 10 µM (inactive)

Query "CCOC(=O)C(O)(C(=O)OCC)c1cc(C(C)(C)C)c(O)c(C(C)(C)C)c1" yields GI50 of 37.2 µM (inactive)

----------
System: MDA-MB-435
assayDetails: NCI tumour cell line growth inhibition, 48 h
Calls of active or inactive are those of the source. Cut-off read from the data, not from the text of the source: active = GI50 up to about 1.1 µM and inactive = higher.
Bench note: report the call from 1 (yes) = active, 0 (no) = inactive

Input line: Can you look up the reported call for "CCNC(=S)N/N=C(/C)c1cccc(/C(C)=N\NC(=S)NCC)n1" for me?
Output line: 0 (no)

Input line: Can you look up the reported call for "O=C(N/N=C/c1ccccc1)c1c(F)c(F)c(F)c(F)c1F" for me?
Output line: 0 (no)

Input line: Can you look up the reported call for CC(=O)n1cc(C2CC23N=C(c2ccccc2)OC3=O)c2ccccc21 (stereo not given) for me?
Output line: 0 (no)

Input line: Can you look up the reported call for CC(=O)Nc1ccc2c3c(cc(O)c2c1)N(C(=O)CCCCC(=O)Nc1ccc2c4c(cc(O)c2c1)N(C(=O)OC(C)(C)C)CC4CCl)CC3CCl (stereo not given) for me?
Output line: 0 (no)

Input line: Can you look up the reported call for C/C=C1/CN2CCC34c5ccccc5N(C)C23C2CC1C4(C(=O)OC)C(OC(C)=O)O2 (stereo not given) for me?
Output line: 0 (no)

New cases:
Input line: Can you look up the reported call for "O=[N+]([O-])c1cccnc1NCC1(CO)CCCC1" for me?
Output line: 0 (no)

Input line: Can you look up the reported call for O=C(CC(NC(=O)OCc1ccccc1)C(=O)NC1Cc2ccccc2C1=O)OCc1ccccc1 (stereo not given) for me?
Output line: 0 (no)

Input line: Can you look up the reported call for "CCCC#CCOC(=O)c1cc([N+](=O)[O-])cc([N+](=O)[O-])c1" for me?
Output line: 0 (no)

Input line: Can you look up the reported call for CCCCCOP(=O)(OCCCCC)C(NC(C)=O)(C(=O)OCC)C(F)(F)F (stereo not given) for me?
Output line: 0 (no)

Input line: Can you look up the reported call for "COc1ccc2nc3c([N+](=O)[O-])ccc4c3c(c2c1)N=CN4CCN(C)C" for me?
Output line: 0 (no)

Input line: Can you look up the reported call for COc1cc2c3c(c1O)-c1c(ccc(OC)c1OC)CC3N(C)CC2 (stereo not given) for me?
Output line: 0 (no)

----------
In this section we review reported GI50 values for a set of compounds.
System: HCC 2998
assayDetails: NCI tumour cell line growth inhibition, 48 h
The source made the active and inactive calls. Rule as the data show it: active = GI50 up to about 1.1 µM and inactive = higher.

Field: example entries. Status: answers known.
Query NC(=O)N/N=C(/c1nc2ccc([N+](=O)[O-])cc2nc1O)C(O)c1ccco1 (stereo not given) yields GI50 of 31 µM (inactive)

Query "NCCCOc1ccc([N+](=O)[O-])cc1Cl" yields GI50 of > 100 µM (inactive)

Query "C[C@@]12[C@H]3CC[C@@H]1[C@H](O)C(=O)N2CC3" yields GI50 of > 100 µM (inactive)

Query "Cc1nc2[nH]ccn2c(=O)c1CCCl" yields GI50 of 19.2 µM (inactive)

New cases:
Query N=C(N)NCCCCCCC(=O)NC(O)C(=O)NCCCCNCCCN (stereo not given) yields GI50 of > 562 µM (inactive)

Query CCCCCCCCCCCCCCCCNc1nc(=O)n(C2OC(C)C(O)C2O)cc1F (stereo not given) yields GI50 of 16.9 µM (inactive)

Query "COc1ccc(/C=C2\C[C@H]3[C@@H]4CCC5=C/C(=N/O)CC[C@]5(C)[C@H]4CC[C@]3(C)\C2=N\O)cc1" yields GI50 of 15.8 µM (inactive)

Query "CCCC#CCOC(=O)c1cc([N+](=O)[O-])cc([N+](=O)[O-])c1" yields GI50 of > 100 µM (inactive)

Query "CC1=C(C(=O)Nc2ccccc2C)C(c2ccco2)C(C(=O)Nc2ccccc2C)=C(C)N1C" yields GI50 of > 100 µM (inactive)

----------
System: UACC-257
assayDetails: NCI tumour cell line growth inhibition, 48 h
Active and inactive are the calls of the source. Rule as the data show it: active = GI50 up to about 1.1 µM and inactive = higher.
Bench note: report the call from true (1) (active), false (0) (inactive)

Example entries begin here.
Input line: Can you look up the reported call for C[C@@H]1CC[C@@]2(C)C(C(=O)O)=CCCC2[C@@]1(C)CC(=O)c1ccoc1 (stereo partly specified) for me?
Output line: false (0)

Input line: Can you look up the reported call for CO[C@H]1[C@@H](O)[C@@H](C)O[C@@H](O[C@H]2CC[C@@]3(C)[C@H](CC[C@@H]4[C@@H]3CC[C@]3(C)[C@@H](C5=CC(=O)OC5)CC[C@]43O)C2)[C@@H]1O [ODOROSIDE H] for me?
Output line: true (1)

Input line: Can you look up the reported call for "COc1cc(OCc2nc3ccccc3n3cccc23)cc(OC)c1OC" for me?
Output line: false (0)

Input line: Can you look up the reported call for "O=c1[nH][nH]c(=O)[nH]1" for me?
Output line: false (0)

Input line: Can you look up the reported call for "COc1cc(C=C2C(=O)OC(C)(C)OC2=O)cc(OC)c1OC" for me?
Output line: false (0)

Input line: Can you look up the reported call for CC(=O)Nc1ccc(C(=O)NN2C(=O)C(Cl)C2c2ccccc2O)cc1 (stereo unspecified) for me?
Output line: false (0)

Input line: Can you look up the reported call for CC(O)c1ccc[n+](Cc2ccccc2)c1 (stereo unspecified) for me?
Output line: false (0)

Input line: Can you look up the reported call for CCCCCCCCCCCCCCCCOCC(CP(=O)([O-])OCC[n+]1ccccc1)OC (stereo unspecified) for me?
Output line: false (0)

Input line: Can you look up the reported call for "Nc1ncc(Sc2ccccc2C(=O)O)s1" for me?
Output line: false (0)

Input line: Can you look up the reported call for "COc1ccc2nc3cccc([N+](=O)[O-])c3c(NCCC(=O)O)c2c1" for me?
Output line: false (0)

New cases:
Input line: Can you look up the reported call for "Cc1c(O)c(=O)ccn1CCc1c[nH]c2ccccc12" for me?
Output line: false (0)

Input line: Can you look up the reported call for c1cncc(C2c3[nH]c4ccccc4c3CCN2CCN2CCCCC2)c1 (stereo unspecified) for me?
Output line: false (0)

Input line: Can you look up the reported call for CC(=O)NC1C(OC(C)C(=O)NC(C)C(=O)NC(CCC(=O)NCCCCCNc2ccc([N+](=O)[O-])c3[nH]c4ccccc4c(=O)c23)C(N)=O)C(O)C(CO)OC1(C)OCc1ccccc1 (stereo unspecified) for me?
Output line: false (0)

Input line: Can you look up the reported call for O=C1CSC(c2c[nH]c3ccccc23)N1c1ccc(Cl)cc1Cl (stereo unspecified) for me?
Output line: false (0)

Input line: Can you look up the reported call for CC12CCC([C@H](N3CCOCC3)/C1=N\OCCN1CCCC1)C2(C)C (stereo partly specified) for me?
Output line: false (0)

Input line: Can you look up the reported call for CN1CC2=C(OC(N)=C(C#N)C2c2cccs2)/C(=C/c2cccs2)C1 (stereo unspecified) for me?
Output line: false (0)

Input line: Can you look up the reported call for COC(=O)c1ccccc1C1=C([N+](=O)[O-])C(c2cccc(Br)c2)C(C#N)=C(N)O1 (stereo unspecified) for me?
Output line: false (0)

Input line: Can you look up the reported call for Cc1ccccc1N(CCC#N)C1=NN(C(=O)CC(=O)Nc2ccccc2)C(c2ccccc2)C1 (stereo unspecified) for me?
Output line: false (0)

----------
In this section we review reported GI50 values for a set of molecules.
Tested on: SNB-19
assayDetails: NCI tumour cell line growth inhibition, 48 h
Calls of active or inactive are those of the source. Rule as the data show it: active = GI50 up to about 1.1 µM and inactive = higher.

Query "O=c1[nH][nH]c(=O)[nH]1" yields GI50 of > 100 µM (inactive)

Query "COc1cccc(OC)c1NC(=O)C(=O)Nn1c(NNC(=O)c2ccncc2)nc2ccccc2c1=O" yields GI50 of > 100 µM (inactive)

Query "Cc1ccc(OCCn2cc(Nc3ccccc3)c(=O)n(CCOc3ccc(C)cc3)c2=O)cc1" yields GI50 of 48.9 µM (inactive)

Query "C=C1[C@@H]2CCC(C)(C)[C@H]1CCC(=O)[C@@H]2C(=O)OC" yields GI50 of > 100 µM (inactive)

Query "O=C1Cc2cn[nH]c2-c2ccccc2N1" yields GI50 of > 68.2 µM (inactive)

New cases:
Query "CNC(=O)OCC1=C(COC(=O)NC)CN(c2ccccc2)C1" yields GI50 of > 100 µM (inactive)
